Assay: Dissolving and recrystallization behavior of active ingredient in 1,3-bis(1-pyrrolidonyl)butane (DHVP) test system
Conditions: 30% by weight in DHVP, room temperature
Protocol: The ratios of the amounts can in principle be chosen without restriction and naturally depend essentially on the properties of the active ingredient. […] The prepared test systems are assessed spectroscopically. […] The recrystallization behavior is also assessed. […]
Readout Label: RT: solution in DHVP

>>> print(df.to_string())
                                   molecule  endpoint_result
0                        CC(=O)Nc1ccc(O)cc1            RT: −
1      CCS(=O)(=O)Oc1ccc2c(C)c(C)c(=O)oc2c1            RT: −
2  CC(C)Cc1ccc(C(C)C(=O)O)cc1 (centres unmarked)            RT: +
3  COc1ccc(CCN(C)CCCC(C#N)(c2cc(OC)c(OC)c(OC)c2)C(C)C)cc1OC.Cl (centres unmarked) [Gallopamil HCl]            RT: −
4  CN(C)CCOC1=Cc2ccccc2Sc2ccc(Cl)cc21 [Zotepine]            RT: −
